Source of measurements: patent US20200131274A1

target: human prostate specific membrane antigen (PSMA), full-length, on cells (human, UniProt Q04609 1-750); assay: cell-based or functional assay
Sequence (Q04609 whole entry): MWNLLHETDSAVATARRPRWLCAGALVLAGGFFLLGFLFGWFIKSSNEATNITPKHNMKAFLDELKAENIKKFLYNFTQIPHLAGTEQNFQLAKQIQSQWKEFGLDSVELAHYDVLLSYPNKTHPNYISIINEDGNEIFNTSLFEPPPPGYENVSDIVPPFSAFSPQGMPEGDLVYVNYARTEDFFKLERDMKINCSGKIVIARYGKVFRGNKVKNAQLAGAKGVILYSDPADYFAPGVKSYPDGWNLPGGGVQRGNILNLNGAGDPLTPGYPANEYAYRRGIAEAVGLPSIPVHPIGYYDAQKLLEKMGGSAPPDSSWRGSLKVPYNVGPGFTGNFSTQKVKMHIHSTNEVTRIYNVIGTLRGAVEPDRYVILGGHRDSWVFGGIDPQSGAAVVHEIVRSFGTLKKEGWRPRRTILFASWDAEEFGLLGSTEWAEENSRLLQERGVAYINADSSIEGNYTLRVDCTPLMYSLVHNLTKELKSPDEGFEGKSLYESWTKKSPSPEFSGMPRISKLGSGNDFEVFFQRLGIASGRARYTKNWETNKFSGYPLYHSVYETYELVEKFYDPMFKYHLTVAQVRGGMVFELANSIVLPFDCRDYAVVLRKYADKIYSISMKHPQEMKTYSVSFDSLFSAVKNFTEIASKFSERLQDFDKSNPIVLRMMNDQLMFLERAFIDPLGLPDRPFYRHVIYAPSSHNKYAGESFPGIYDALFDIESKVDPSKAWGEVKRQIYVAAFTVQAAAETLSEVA
observed property: Mean IC50, cytotoxicity on DU145 PSMA cells, 48 h

binder	measured result
HiPEG C-2-C-His6 val-cit-PAB-MMAE (VHH, HiPEG val-cit-PAB-MMAE attached via the C-terminal His6-tag, DAR 1) EVQLVESGGGVVQPGRSLRLSCAASGFPLISYGMHWVRQAPGKGLEWVAFMTYDGSNRYYADSVKGRFTISRDNSKNTLYLQMNSLRDEDTALYYCARDRIVGGRVPDAFDIWGQGTMVTVSSGGGGSGGGGSGGGGSGGGGSGGGGSGGGGSEVQLVESGGGVVQPGRSLRLSCAASGFPLISYGMHWVRQAPGKGLEWVAFMTYDGSNRYYADSVKGRFTISRDNSKNTLYLQMNSLRDEDTALYYCARDRIVGGRVPDAFDIWGQGTMVTVSS	4.5 nM
HiPEG B-2-B-His6 val-cit-PAB-MMAE (VHH, HiPEG val-cit-PAB-MMAE attached via the C-terminal His6-tag, DAR 0.7) EVQLLESGGGLVQPGGSLRLSCAASGFSFSSYAMSWVRQAPGKGLEWVSSIGENDGTTDYADSVKGRFTISRDNSKSMLYLQMNSLRVEDTAVYYCVKDGVHWGQGTLVTVSSGGGGSGGGGSGGGGSGGGGSGGGGSGGGGSEVQLLESGGGLVQPGGSLRLSCAASGFSFSSYAMSWVRQAPGKGLEWVSSIGENDGTTDYADSVKGRFTISRDNSKSMLYLQMNSLRVEDTAVYYCVKDGVHWGQGTLVTVSS	18 nM
HiPEG A-His6 val-cit-PAB-MMAE (VHH, HiPEG val-cit-PAB-MMAE attached via the C-terminal His6-tag, DAR 1) VHH: EVQLVESGGGVVQPGRSLRLSCAASGFSFSGYGMHWVRQAPGKGLEWVAYISYDGSNKYYADSVKGRFTISRDNSKNTLYLQMNSLRAEDTAVYYCAKDPAWGLRLGESSSYDFDIWGQGTMVTVSS	1.2 nM
